Listed here are compounds together with their documented Average days of survival.
Test system: VCR resistant murine leukemia (P388/VCR) cells
Test Details: In vivo overcoming of resistance in VCR resistant murine leukemia (P388/VCR) bearing mice, etoposide with compound 20 mg/kg
Set-up: species or system CDF1 female mice
Condition Details: VP-16 3 mg/kg + compound 20 mg/kg, i.v. once per day for 5 days
Value expressed in days; do not type the unit.

CCOC(=O)C1=C(c2ccc(-n3c(C)nc4cnccc43)cc2)NC(C)=C(C(=O)OCC#Cc2cnc3ccccc3c2)C1/C=C/c1ccccc1 (stereo not drawn) = 16.0
CCOC(=O)C1=C(c2ccc(-n3c(C)nc4cnccc43)cc2)NC(C)=C(C(=O)OCC#Cc2cnc3ccccc3c2)C1CCc1ccccc1 (stereo not drawn) = 16.0

Ask | Name the reported Average days of survival value associated with the compound CCOC(=O)C1=C(c2ccc(-n3c(C)nc4cnccc43)cc2)NC(C)=C(C(=O)OCCC#Cc2cccnc2)C1CCc1ccccc1 (stereo not drawn)
Reply | 15.2

Ask | Note, next up: CCOC(=O)C1=C(c2ccc(-n3c(C)nc4cnccc43)cc2)NC(C)=C(C(=O)OCC#Cc2cccnc2)C1C1CCCCC1 (stereo not drawn)
Reply | 14.8

Ask | Note, next up: CCOC(=O)C1=C(c2ccc(-n3c(C)nc4cnccc43)cc2)NC(C)=C(C(=O)OCC#Cc2cccnc2)C1CC(c1ccccc1)c1ccccc1 (stereo not drawn)
Reply | 16.3

Ask | Note, next up: CCCCCC1C(C(=O)OC(C)C#Cc2cccnc2)=C(C)NC(c2ccc(-n3c(C)nc4cnccc43)cc2)=C1C(=O)OCC (stereo not drawn)
Reply | 14.6

Ask | Note, next up: CCOC(=O)C1=C(c2ccc(-n3c(C)nc4cnccc43)cc2)NC(C)=C(C(=O)OCC#Cc2cccnc2)C1C(C)c1ccccc1 (stereo not drawn)
Reply | 13.4

Ask | Note, next up: CCOC(=O)C1=C(c2ccc(-n3c(C)nc4cnccc43)cc2)NC(C)=C(C(=O)OCC#Cc2cccnc2)C1CC1c2ccccc2C2C(c3ccccc31)C2(F)F (stereo not drawn)
Reply | 14.5
